Experiment: in vitro
Conditions: rat, gh3-tre-luc cells, AC50 (uM) modified / 1000, Tox21_110001=Tox21_113156; viability, 1 nM T3 present, 24 h

{"MOLECULE": "S=C(SSC(=S)N1CCCCC1)N1CCCCC1 [Dicyclopentamethylenethiuram disulfide]", "CC50 at 24 h": "0.373 µM"}

====

Assay: in vitro
Conditions: rat, gh3-tre-luc cells, AC50 (uM) modified / 1000, Tox21_110001=Tox21_200666; viability, 1 nM T3 present, 24 h

{"COMPOUND": "NNC(=O)c1cccnc1 [Nicotinic acid hydrazide]", "CC50 at 24 h": "> 90 µM"}
